- System: KYSE-70 (Esophageal Squamous Cell Carcinoma)
- experiment description: Bliss excess, mean over the matrix (fraction); higher = more synergy
readout name: Bliss excess
// print number alone

Sample CC1(C)CCC(CN2CCN(c3ccc(C(=O)NS(=O)(=O)c4ccc(NCC5CCOCC5)c([N+](=O)[O-])c4)c(Oc4cnc5[nH]ccc5c4)c3)CC2)=C(c2ccc(Cl)cc2)C1 [Venetoclax] + COc1cc(Nc2ncc3c(n2)-c2ccc(Cl)cc2C(c2c(F)cccc2OC)=NC3)ccc1C(=O)O [Alisertib] (first compound max 1 µM, 7x7, partner max 10 µM) — what was its Bliss excess?
-0.0084

Sample Cc1c2c(nn1C)CSCc1cc(n(C)n1)CSc1cc(c3ccccc3c1)OCCCc1c(C(=O)O)n(C)c3c-2c(Cl)ccc13 [AZD5991] + CN(C)CCCOc1ccc(-c2ccc3ncc4c(c3c2)n(C2CCOCC2)c(=O)n4C)cn1 [AZD0156] (first compound max 1 µM, 7x7, partner max 1 µM) — what was its Bliss excess?
0.0286

Sample CCc1c2c(nc3ccc(O)cc13)-c1cc3c(c(=O)n1C2)COC(=O)[C@]3(O)CC [SN-38] + CN(C)CCCOc1ccc(-c2ccc3ncc4c(c3c2)n(C2CCOCC2)c(=O)n4C)cn1 [AZD0156] (first compound max 0.3 µM, 7x7, partner max 1 µM) — what was its Bliss excess?
0.0487

====

- Test system: NCI-H1155 (Non-Small Cell Lung Carcinoma)
- experiment description: combination Emax (second highest fraction inhibited in the dose matrix, 72 h); higher = more inhibition; extreme values may be limits of the assay
readout name: combination Emax
// print number alone

INSERT INTO assay_data (compound, readout_name, observed_value) VALUES
  ('Cc1c2c(nn1C)CSCc1cc(n(C)n1)CSc1cc(c3ccccc3c1)OCCCc1c(C(=O)O)n(C)c3c-2c(Cl)ccc13 [AZD5991] + C[C@@H](Nc1cc(F)cc(F)c1)c1cc(C(=O)N(C)C)cc2c(=O)cc(N3CCOCC3)oc12 [AZD8186] (first compound max 1 µM, 7x7, partner max 3 µM)', 'combination Emax', 0.33);

Sample CN(CCO)CC[C@H](CSc1ccccc1)Nc1ccc(S(=O)(=O)NC(=O)c2ccc(N3CCC([C@@H](O)c4ccccc4-c4ccc(Cl)cc4)CC3)cc2)cc1S(=O)(=O)C(F)(F)F [AZD4320] + Cc1cc2ncnn2cc1Nc1ncc2c(n1)n(C1CCOCC1)c(=O)n2C [AZD7648] (first compound max 1 µM, 7x7, partner max 10 µM) — what was its combination Emax?
0.772

Sample CCc1c2c(nc3ccc(O)cc13)-c1cc3c(c(=O)n1C2)COC(=O)[C@]3(O)CC [SN-38] + O=C(c1cc(Cc2n[nH]c(=O)c3ccccc23)ccc1F)N1CCN(C(=O)C2CC2)CC1 [Olaparib] (first compound max 0.3 µM, 7x7, partner max 10 µM) — what was its combination Emax?
0.968

====

- Tested on: HuO-3N1 (Osteosarcoma)
- experiment description: combination Emax (second highest fraction inhibited in the dose matrix, 72 h); higher = more inhibition; extreme values may be limits of the assay
Cut-off 0.5 on combination Emax, inclusive. At or above means class 1; below means class 0.

Solved entries (count: 5):
INSERT INTO assay_data (compound, label) VALUES
  ('COc1cc2ncnc(Nc3ccc(F)c(Cl)c3)c2cc1OCCCN1CCOCC1 [Gefitinib] + CC(C)n1c(=O)n(C)c2cnc3cc(F)c(-c4ccc(OCCCN5CCCCC5)nc4)cc3c21 [AZD1390] (first compound max 10 µM, 7x7, partner max 0.3 µM)', 'class 0'),
  ('C=CCn1c(=O)c2cnc(Nc3ccc(N4CCN(C)CC4)cc3)nc2n1-c1cccc(C(C)(C)O)n1 [AZD1775] + O=C(c1cc(Cc2n[nH]c(=O)c3ccccc23)ccc1F)N1CCN(C(=O)C2CC2)CC1 [Olaparib] (first compound max 1 µM, partner max 10 µM)', 'class 0'),
  ('CC1(C)CCC(CN2CCN(c3ccc(C(=O)NS(=O)(=O)c4ccc(NCC5CCOCC5)c([N+](=O)[O-])c4)c(Oc4cnc5[nH]ccc5c4)c3)CC2)=C(c2ccc(Cl)cc2)C1 [Venetoclax] + Cn1cnc2c(F)c(Nc3ccc(Br)cc3Cl)c(C(=O)NOCCO)cc21 [Selumetinib] (first compound max 1 µM, 7x7, partner max 3 µM)', 'class 0'),
  ('COc1nnc2ccc(N3CCC(c4ccc(OCCN5CCN(C)C(=O)[C@H]5C)cc4)CC3)nn12 [AZD5153] + CN(CC[C@H](CSC1=CC=CC=C1)NC2=C(C=C(C=C2)S(=O)(=O)NC(=O)C3=CC=C(C=C3)N4CCC(CC4)[C@H](C5=CC=CC=C5C6=CC=C(C=C6)Cl)O)S(=O)(=O)C(F)(F)F)CCO [AZD4320] (first compound max 1 µM, 7x7, partner max 1 µM)', 'class 0'),
  ('NC1(C(=O)N[C@@H](CCO)c2ccc(Cl)cc2)CCN(c2ncnc3[nH]ccc23)CC1 [Capivasertib] + C[C@@H]1COCCN1C2=NC(=NC(=C2)C3(CC3)[S@](=N)(=O)C)C4=C5C=CNC5=NC=C4 [AZD6738] (first compound max 10 µM, 7x7, partner max 10 µM)', 'class 1');

Does the reported combination Emax for C=CCn1c(=O)c2cnc(Nc3ccc(N4CCN(C)CC4)cc3)nc2n1-c1cccc(C(C)(C)O)n1 [AZD1775] + C1CN(CCC1(C(=O)N[C@@H](CCO)C2=CC=C(C=C2)Cl)N)C3=NC=NC4=C3C=CN4 [Capivasertib] (first compound max 3 µM, partner max 3 µM) fall at or above the 0.5 mark?
class 1

Does the reported combination Emax for CC1(C)CCC(CN2CCN(c3ccc(C(=O)NS(=O)(=O)c4ccc(NCC5CCOCC5)c([N+](=O)[O-])c4)c(Oc4cnc5[nH]ccc5c4)c3)CC2)=C(c2ccc(Cl)cc2)C1 [Venetoclax] + C=CCn1c(=O)c2cnc(Nc3ccc(N4CCN(C)CC4)cc3)nc2n1-c1cccc(C(C)(C)O)n1 [AZD1775] (first compound max 1 µM, partner max 1 µM) fall at or above the 0.5 mark?
class 0

====

Some molecules, each annotated with its measured combination Emax.
- Tested on: SW684 (Other Solid Carcinomas)
- experiment description: combination Emax (second highest fraction inhibited in the dose matrix, 72 h); higher = more inhibition; extreme values may be limits of the assay
// print number alone

INSERT INTO assay_data (molecule, experimental_target, readout_name, observed_value) VALUES
  ('COc1cccc(OCCCN)c1-c1cc(Nc2cnc(C#N)cn2)n[nH]1 [Prexasertib] + C=CCn1c(=O)c2cnc(Nc3ccc(N4CCN(C)CC4)cc3)nc2n1-c1cccc(C(C)(C)O)n1 [AZD1775] (first compound max 1 µM, partner max 1 µM)', 'SW684 (Other Solid Carcinomas)', 'combination Emax', 0.598),
  ('CS(=O)(=O)CCNCc1ccc(-c2ccc3ncnc(Nc4ccc(OCc5cccc(F)c5)c(Cl)c4)c3c2)o1 [Lapatinib] + Cn1cnc2c(F)c(Nc3ccc(Br)cc3Cl)c(C(=O)NOCCO)cc21 [Selumetinib] (first compound max 10 µM, 7x7, partner max 10 µM)', 'SW684 (Other Solid Carcinomas)', 'combination Emax', 0.281),
  ('COc1cc2ncnc(Nc3ccc(F)c(Cl)c3)c2cc1OCCCN1CCOCC1 [Gefitinib] + CC(C)n1c(=O)n(C)c2cnc3cc(F)c(-c4ccc(OCCCN5CCCCC5)nc4)cc3c21 [AZD1390] (first compound max 10 µM, 7x7, partner max 0.3 µM)', 'SW684 (Other Solid Carcinomas)', 'combination Emax', 0.136);

Turning now to a further record.
Sample Cc1cc2ncnn2cc1Nc1ncc2c(n1)n(C1CCOCC1)c(=O)n2C [AZD7648] + COc1cc([C@@H]2c3cc4c(cc3[C@@H](O[C@@H]3O[C@@H]5CO[C@@H](C)O[C@H]5[C@H](O)[C@H]3O)[C@H]3COC(=O)[C@H]23)OCO4)cc(OC)c1O [Etoposide] (first compound max 10 µM, 7x7, partner max 10 µM) — what was its combination Emax?
0.428

====

Some molecules, each annotated with its measured Bliss excess.
- Tested on: NKM-1 (Acute Myeloid Leukemia)
- experiment description: Bliss excess, mean over the matrix (fraction); higher = more synergy
// print number alone

INSERT INTO results (molecule, experimental_target, observed_value) VALUES
  ('NC1(C(=O)N[C@@H](CCO)c2ccc(Cl)cc2)CCN(c2ncnc3[nH]ccc23)CC1 [Capivasertib] + CC(C)n1c(=O)n(C)c2cnc3cc(F)c(-c4ccc(OCCCN5CCCCC5)nc4)cc3c21 [AZD1390] (first compound max 10 µM, 7x7, partner max 0.3 µM)', 'NKM-1 (Acute Myeloid Leukemia)', -0.111),
  ('CC1(C)CCC(CN2CCN(c3ccc(C(=O)NS(=O)(=O)c4ccc(NCC5CCOCC5)c([N+](=O)[O-])c4)c(Oc4cnc5[nH]ccc5c4)c3)CC2)=C(c2ccc(Cl)cc2)C1 [Venetoclax] + COc1cc(Nc2ncc3c(n2)-c2ccc(Cl)cc2C(c2c(F)cccc2OC)=NC3)ccc1C(=O)O [Alisertib] (first compound max 1 µM, 7x7, partner max 10 µM)', 'NKM-1 (Acute Myeloid Leukemia)', 0.0087),
  ('Cn1cnc2c(F)c(Nc3ccc(Br)cc3Cl)c(C(=O)NOCCO)cc21 [Selumetinib] + CCN(CCO)CCCOc1ccc2c(Nc3cc(CC(=O)Nc4cccc(F)c4)[nH]n3)ncnc2c1 [AZD2811] (first compound max 10 µM, 7x7, partner max 1 µM)', 'NKM-1 (Acute Myeloid Leukemia)', -0.0376);

Turning now to a further record.
Sample Cc1cc2ncnn2cc1Nc1ncc2c(n1)n(C1CCOCC1)c(=O)n2C [AZD7648] + CN(C)CCCOc1ccc(-c2ccc3ncc4c(c3c2)n(C2CCOCC2)c(=O)n4C)cn1 [AZD0156] (first compound max 10 µM, 7x7, partner max 1 µM) — what was its Bliss excess?
-0.0039
